Recorded MIC, one value per entry.
system: Escherichia coli; assay: Antimicrobial activity against Escherichia coli isolate SJ 4 after 18 to 20 hrs by microbroth dilution method; type: functional

Example results:
CO[C@@]1(NC(=O)CSCC#N)C(=O)N2C(C(=O)O)=C(CSc3nnnn3C)CS[C@@H]21: 0.78 µg/mL
N[C@@H](C(=O)N[C@@H]1C(=O)N2C(C(=O)O)=C(Cl)CS[C@H]12)c1ccccc1 [CEFACLOR ANHYDROUS]: > 200 µg/mL
CO[C@@]1(NC(=O)CCCC(=O)C2=C(O)[C@@H](CCC(=O)O)NC2=O)C(=O)N2C(C(=O)O)=C(CSc3nnnn3C)CS[C@@H]21: > 200 µg/mL

Task item: What reported MIC corresponds to CO[C@@]1(NC(=O)CCCC(=O)C2=C(O)[C@@H](CC(C)C)NC2=O)C(=O)N2C(C(=O)O)=C(CSc3nnnn3C)CS[C@@H]21 on Escherichia coli?
Reply: > 200 µg/mL

---

tested on: Klebsiella pneumoniae; assay: Antimicrobial activity against Klebsiella pneumoniae ATCC 33495 after 18 to 20 hrs by microbroth dilution method; format: functional
Endpoint label: MIC (µg/mL)
The response must be a number in µg/mL with no trailing unit.

CO[C@@]1(NC(=O)CCCC(=O)C2=C(O)[C@@H](CCC(=O)O)NC2=O)C(=O)N2C(C(=O)O)=C(CSc3nnnn3C)CS[C@@H]21: 200
CO[C@@]1(NC(=O)CSCC#N)C(=O)N2C(C(=O)O)=C(CSc3nnnn3C)CS[C@@H]21: 3.13
CO[C@@]1(NC(=O)CCCC(=O)C2=C(O)[C@@H](CCCNC(=N)N)NC2=O)C(=O)N2C(C(=O)O)=C(CSc3nnnn3C)CS[C@@H]21: 6.25
N[C@@H](C(=O)N[C@@H]1C(=O)N2C(C(=O)O)=C(Cl)CS[C@H]12)c1ccccc1 [CEFACLOR ANHYDROUS]: 1.56

Task item: Quick one: MIC of CO[C@@]1(NC(=O)CCCC(=O)C2=C(O)[C@@H](CC(C)C)NC2=O)C(=O)N2C(C(=O)O)=C(CSc3nnnn3C)CS[C@@H]21 ?
Reply: 100

Task item: Which MIC reading was recorded for the molecule CC1(C)S[C@@H]2[C@H](NC(=O)[C@H](N)c3ccccc3)C(=O)N2[C@H]1C(=O)O ?
Reply: 100

Task item: Which MIC reading was recorded for the molecule CC(C)CC1NC(=O)C(C(=O)NCCC(=O)N[C@@H](C(=O)N[C@@H]2C(=O)N3[C@@H]2SC(C)(C)[C@@H]3C(=O)O)c2ccccc2)=C1O (some centres undefined) ?
Reply: 200

Task item: Look at this molecule and give its reported MIC. CC1=C(C(=O)O)N2C(=O)[C@@H](NC(=O)[C@H](NC(=O)CCNC(=O)C3=C(O)C(CC(C)C)NC3=O)c3ccccc3)[C@H]2SC1 (some centres undefined)
Reply: 200

Task item: Quick check: MIC of CC(C)CC1NC(=O)C(C(=O)N[C@@H](C(=O)N[C@@H]2C(=O)N3[C@@H]2SC(C)(C)[C@@H]3C(=O)O)c2ccccc2)=C1O (some centres undefined) ?
Reply: 200

---

Attribute: log10 of MIC
tested on: Streptococcus pneumoniae; assay: Antimicrobial activity against Streptococcus pneumoniae R6 after 18 to 20 hrs by microbroth dilution method; assay type: functional
Record value = log10 of MIC given in µg/mL.

CC(C)CC1NC(=O)C(C(=O)NCCC(=O)N[C@@H](C(=O)N[C@@H]2C(=O)N3C(C(=O)O)=C(Cl)CS[C@H]23)c2ccccc2)=C1O (some centres undefined): -0.41
C=CC1=C(C(=O)O)N2C(=O)[C@@H](NC(=O)CCNC(=O)C3=C(O)C(CC(C)C)NC3=O)[C@H]2SC1 (some centres undefined): 0.80
CC1=C(C(=O)O)N2C(=O)[C@@H](NC(=O)[C@H](NC(=O)CCNC(=O)C3=C(O)C(CC(C)C)NC3=O)c3ccccc3)[C@H]2SC1 (some centres undefined): 1.10
CC1=C(C(=O)O)N2C(=O)[C@@H](NC(=O)CCNC(=O)C3=C(O)C(CC(C)C)NC3=O)[C@H]2SC1 (some centres undefined): 2.30

Task item: So what's the measured log10 of MIC for this one? CC(C)CC1NC(=O)C(C(=O)N[C@@H](C(=O)N[C@@H]2C(=O)N3[C@@H]2SC(C)(C)[C@@H]3C(=O)O)c2ccccc2)=C1O (some centres undefined)
Reply: -0.41

Task item: Using the record for N[C@@H](C(=O)N[C@@H]1C(=O)N2C(C(=O)O)=C(Cl)CS[C@H]12)c1ccccc1 [CEFACLOR ANHYDROUS] , report its log10 of MIC.
Reply: -0.11

---

system: Proteus mirabilis; experiment: Antimicrobial activity against Proteus mirabilis ATCC 25933 after 18 to 20 hrs by microbroth dilution method; format: functional
Checkbox rule: MIC lower than 10 µg/mL = fulfilled; MIC not lower than 10 µg/mL = not fulfilled.

Field: example entries. Status: answers known.
C=CC1=C(C(=O)O)N2C(=O)[C@@H](NC(=O)CCNC(=O)C3=C(O)C(CC(C)C)NC3=O)[C@H]2SC1 (some centres undefined): not fulfilled
CO[C@@]1(NC(=O)CCCC(=O)C2=C(O)[C@@H](CC(C)C)NC2=O)C(=O)N2C(C(=O)O)=C(CSc3nnnn3C)CS[C@@H]21: not fulfilled
CC(=O)OCC1=C(C(=O)O)N2C(=O)[C@@H](NC(=O)CCNC(=O)C3=C(O)C(CC(C)C)NC3=O)[C@H]2SC1 (some centres undefined): not fulfilled
CO[C@@]1(NC(=O)CCCC(=O)C2=C(O)[C@@H](CCCNC(=N)N)NC2=O)C(=O)N2C(C(=O)O)=C(CSc3nnnn3C)CS[C@@H]21: fulfilled
CO[C@@]1(NC(=O)CCCC(=O)C2=C(O)[C@@H](CCC(=O)O)NC2=O)C(=O)N2C(C(=O)O)=C(CSc3nnnn3C)CS[C@@H]21: not fulfilled
CC1=C(C(=O)O)N2C(=O)[C@@H](NC(=O)CCNC(=O)C3=C(O)C(CC(C)C)NC3=O)[C@H]2SC1 (some centres undefined): not fulfilled
CC1=C(C(=O)O)N2C(=O)[C@@H](NC(=O)[C@H](N)c3ccccc3)[C@H]2SC1 [CEPHALEXIN ANHYDROUS]: not fulfilled
CO[C@@]1(NC(=O)CSCC#N)C(=O)N2C(C(=O)O)=C(CSc3nnnn3C)CS[C@@H]21 [CEFMETAZOLE]: fulfilled
CC1=C(C(=O)O)N2C(=O)[C@@H](NC(=O)[C@H](NC(=O)C3=C(O)C(CC(C)C)NC3=O)c3ccccc3)[C@H]2SC1 (some centres undefined): not fulfilled
CC(C)CC1NC(=O)C(C(=O)N[C@@H](C(=O)N[C@@H]2C(=O)N3[C@@H]2SC(C)(C)[C@@H]3C(=O)O)c2ccccc2)=C1O (some centres undefined): not fulfilled

Task item: Strictly below 10 µg/mL in MIC? CC1=C(C(=O)O)N2C(=O)[C@@H](NC(=O)[C@H](NC(=O)CCNC(=O)C3=C(O)C(CC(C)C)NC3=O)c3ccccc3)[C@H]2SC1 (some centres undefined)
Reply: not fulfilled

---

tested on: Escherichia coli; test: Antimicrobial activity against Escherichia coli isolate SJ 2 after 18 to 20 hrs by microbroth dilution method; type: functional
Below, each entry is listed alongside its reported MIC.
Respond numerically; units are µg/mL and should not be typed.

Recorded MIC, per entry:
N[C@@H](C(=O)N[C@@H]1C(=O)N2C(C(=O)O)=C(Cl)CS[C@H]12)c1ccccc1 [CEFACLOR ANHYDROUS]: 200
CO[C@@]1(NC(=O)CCCC(=O)C2=C(O)[C@@H](CCC(=O)O)NC2=O)C(=O)N2C(C(=O)O)=C(CSc3nnnn3C)CS[C@@H]21: 200
CO[C@@]1(NC(=O)CSCC#N)C(=O)N2C(C(=O)O)=C(CSc3nnnn3C)CS[C@@H]21: 0.78
CO[C@@]1(NC(=O)C2SC(=C(C(N)=O)C(=O)O)S2)C(=O)N2C(C(=O)O)=C(CSc3nnnn3C)CS[C@@H]21 (some centres not stated): 1.56
CO[C@@]1(NC(=O)CCCC(=O)C2=C(O)[C@@H](CC(C)C)NC2=O)C(=O)N2C(C(=O)O)=C(CSc3nnnn3C)CS[C@@H]21: 200

Task item: Report MIC for CO[C@@]1(NC(=O)CCCC(=O)C2=C(O)[C@@H](CCCNC(=N)N)NC2=O)C(=O)N2C(C(=O)O)=C(CSc3nnnn3C)CS[C@@H]21 please.
Reply: 3.13

---

Quick list: MIC per entry.
tested on: Klebsiella pneumoniae; experiment: Antimicrobial activity against Klebsiella pneumoniae ATCC 33495 after 18 to 20 hrs by microbroth dilution method; format: functional

Task item: # lookup: MIC of CC(C)CC1NC(=O)C(C(=O)NCCCCCC(=O)N[C@@H](C(=O)N[C@@H]2C(=O)N3[C@@H]2SC(C)(C)[C@@H]3C(=O)O)c2ccccc2)=C1O (some centres undefined)
Reply: > 200 µg/mL

Task item: Reported MIC for CC1=C(C(=O)O)N2C(=O)[C@@H](NC(=O)[C@H](N)c3ccccc3)[C@H]2SC1 [CEPHALEXIN ANHYDROUS] : what is it?
Reply: 50 µg/mL

Task item: // lookup MIC for CC(C)CC1NC(=O)C(C(=O)NCCC(=O)N[C@@H](C(=O)N[C@@H]2C(=O)N3C(C(=O)O)=C(Cl)CS[C@H]23)c2ccccc2)=C1O (some centres undefined)
Reply: 50 µg/mL

Task item: Item CC1=C(C(=O)O)N2C(=O)[C@@H](NC(=O)CCNC(=O)C3=C(O)C(CC(C)C)NC3=O)[C@H]2SC1 (some centres undefined) has what recorded MIC?
Reply: > 200 µg/mL
